Molecular target: C-X-C chemokine receptor type 6 (Homo sapiens)
Assay: potency against CXCR6 with APJ panel – cell-based, beta-arrestin, DiscoveRx, uHTS hits, dose response (AID 624129)
Conditions: CXCR6 beta-arrestin (DiscoveRx) antagonist cell assay, CXCR6, dose range 1, mean IC50 across replicates
Output True for records whose IC50 is lower than 10 µM, False for records at or above 10 µM.

- Cc1nnc(Sc2cc(NCCO)c([N+](=O)[O-])c3nonc23)s1: False
- Cc1ccnc(N2C(=O)c3cccc4c([N+](=O)[O-])ccc(c34)C2=O)c1: True
- COc1cc(C(=O)NC2CC3CCCC(C2)N3CC(=O)Nc2ccccc2)cc(OC)c1OC (configuration not stated): False
- COc1cc(/C=C(\C#N)c2nc(-c3cc4ccccc4oc3=O)cs2)ccc1O: False
- COc1ccc(C(=O)/C(=C\c2ccco2)N2C=CC=CC2=C(C#N)C#N)cc1: True
- Cc1nnc(Sc2cc(NCCCO)c([N+](=O)[O-])c3nonc23)s1: True
- CCOc1cc(/C=C2\N=C(SC)SC2=O)cc([N+](=O)[O-])c1OC(C)=O: False
- COc1cc(/C=C/c2ccc3cccc(OC)c3n2)c(OC(C)=O)c([N+](=O)[O-])c1: False
- Cc1cnc(C(=O)Nc2cccc3cccnc23)cn1: False
- Cc1ccc(C(C[N+](=O)[O-])Sc2ccc(N)cc2)cc1 (configuration not stated): False
- C=C1C(=O)C23CCC4C(C)(C(=O)OC)CCCC4(C)C2CCC1(O)C3 (configuration not stated): True
- CCOC(=O)c1c(SCCN2CCCC2)n(-c2ccccc2)c(=S)n(-c2ccccc2)c1=O: False
